- Test system: PPARg homodimer (NR concentration 180 nM)
- assayInfo: PBM binding z-score (relative to random genomic background probes); higher = stronger binding; sequences stand for … in GC…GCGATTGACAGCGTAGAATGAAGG
recordedEndpoint: PBM binding z-score

Known results for sequences:
INSERT INTO assay_data (biosequence, observedvalue) VALUES
  ('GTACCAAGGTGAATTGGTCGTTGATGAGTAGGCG', -0.163),
  ('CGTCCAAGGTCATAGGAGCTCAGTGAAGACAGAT', 2.6),
  ('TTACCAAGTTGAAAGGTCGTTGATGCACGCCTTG', 1.5),
  ('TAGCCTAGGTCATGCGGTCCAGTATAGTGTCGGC', 0.743),
  ('CCAGACCGGTGAGAAGGTAACTCAGCCTCGATTA', 0.768),
  ('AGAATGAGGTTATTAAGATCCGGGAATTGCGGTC', 1.11);

-- ask Quick one: PBM binding z-score for `CGAACGAGGGCATGAATTGATAGCAAATGCCGAT` ?
-- reply 0.00872

-- ask Quick one: PBM binding z-score for `CATACAGGGTCAGCTAGACCAGAGTAGGGACGGC` ?
-- reply 1.43

-- ask Quick one: PBM binding z-score for `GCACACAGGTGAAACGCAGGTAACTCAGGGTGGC` ?
-- reply -0.0515

-- ask Quick one: PBM binding z-score for `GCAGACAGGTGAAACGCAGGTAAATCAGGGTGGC` ?
-- reply -0.379

-- ask Quick one: PBM binding z-score for `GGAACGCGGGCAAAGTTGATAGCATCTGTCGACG` ?
-- reply -0.0903

----------
- Tested on: PPARg homodimer (NR concentration 180 nM)
- assayInfo: PBM binding z-score (relative to random genomic background probes); higher = stronger binding; sequences stand for … in GC…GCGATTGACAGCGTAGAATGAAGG
Reported values of PBM binding z-score for individual entries
Keep the answer to the number alone.

INSERT INTO results (biosequence, observedvalue) VALUES
  ('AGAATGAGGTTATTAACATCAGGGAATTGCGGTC', 0.441),
  ('CCTATTGGGCCACGAAAGGTCATTGATTCAGTGA', 5.52),
  ('AATACAGGGTCACTCGGCCAGAGTAGGTACGAAT', 2.92),
  ('CGAACTAGGTCATTGACAGGACAGAGAATAGTAA', 2.33),
  ('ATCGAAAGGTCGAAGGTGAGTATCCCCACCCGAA', 1.12),
  ('TCATATAGGTAATACAGGTGAAATTCGGCATCTA', 1.02),
  ('CCTTACGGGTCAAGGATATAGCACGGGTGGTACG', 1.43),
  ('TTACCAACGTGAAGGTCGTTGATCCCTCTGTAGA', 0.497);

-- ask Quick one: PBM binding z-score for `CGAACTAGGTCAAGGACCGTGAATCTCCGCACGC` ?
-- reply 0.756

----------
- Tested on: PXR homodimer (NR concentration 270 nM)
- assayInfo: PBM binding z-score (relative to random genomic background probes); higher = stronger binding; sequences stand for … in GC…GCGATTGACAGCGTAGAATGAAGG
recordedEndpoint: PBM binding z-score

Known results for sequences:
INSERT INTO assay_data (biosequence, observedvalue) VALUES
  ('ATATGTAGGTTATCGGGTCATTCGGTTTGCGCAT', 5.62),
  ('ATATGTAAGTTATCGGGTCATTCAGTTTGCGCAT', 6.97),
  ('TCATAAAGGTAAAAGGTGAAAGTCGGTGTGGTAA', 0.65);

-- ask // lookup PBM binding z-score | system=PXR homodimer (NR concentration 270 nM) | key= `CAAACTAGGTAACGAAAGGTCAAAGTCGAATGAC`
-- reply 1.94

-- ask // lookup PBM binding z-score | system=PXR homodimer (NR concentration 270 nM) | key= `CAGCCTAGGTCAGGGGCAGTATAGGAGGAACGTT`
-- reply -0.048

-- ask // lookup PBM binding z-score | system=PXR homodimer (NR concentration 270 nM) | key= `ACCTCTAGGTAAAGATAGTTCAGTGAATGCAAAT`
-- reply 0.128

-- ask // lookup PBM binding z-score | system=PXR homodimer (NR concentration 270 nM) | key= `CAAACTAGGTCAAGGTCAAAGTCGGTTTGTGCCA`
-- reply 2.25

-- ask // lookup PBM binding z-score | system=PXR homodimer (NR concentration 270 nM) | key= `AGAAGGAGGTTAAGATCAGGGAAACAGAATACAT`
-- reply 1.36

-- ask // lookup PBM binding z-score | system=PXR homodimer (NR concentration 270 nM) | key= `ATCGAAAGGTCGTGATGTGAGTATACAGAAAGGC`
-- reply 0.368

----------
- System: PPARg:RXRa (NR concentration 180 nM, RXRa partner concentration 90 nM)
- assayInfo: PBM binding z-score (relative to random genomic background probes); higher = stronger binding; sequences stand for … in GC…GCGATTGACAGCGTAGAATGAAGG
recordedEndpoint: PBM binding z-score
Keep the answer to the number alone.

Known results for sequences:
INSERT INTO measurements (biosequence, targetorsystem, recordedendpoint, observedvalue) VALUES
  ('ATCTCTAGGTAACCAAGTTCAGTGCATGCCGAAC', 'PPARg:RXRa (NR concentration 180 nM, RXRa partner concentration 90 nM)', 'PBM binding z-score', 0.901),
  ('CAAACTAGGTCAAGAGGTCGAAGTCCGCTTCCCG', 'PPARg:RXRa (NR concentration 180 nM, RXRa partner concentration 90 nM)', 'PBM binding z-score', 8.83),
  ('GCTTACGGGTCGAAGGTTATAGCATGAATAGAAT', 'PPARg:RXRa (NR concentration 180 nM, RXRa partner concentration 90 nM)', 'PBM binding z-score', 6.66);

-- ask Quick one: PBM binding z-score for `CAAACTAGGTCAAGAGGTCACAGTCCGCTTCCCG` ?
-- reply 10.2

-- ask Quick one: PBM binding z-score for `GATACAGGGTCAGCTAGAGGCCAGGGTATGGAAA` ?
-- reply 3.61

-- ask Quick one: PBM binding z-score for `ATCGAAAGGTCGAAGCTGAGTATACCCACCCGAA` ?
-- reply 2.17

-- ask Quick one: PBM binding z-score for `CTATCAAGGTGAACAAGGTCGTTGATTACTATTC` ?
-- reply 1.53

-- ask Quick one: PBM binding z-score for `CCTAGCAAGCCAGGGTCACTCAAGCATTTCGCTT` ?
-- reply 0.169

-- ask Quick one: PBM binding z-score for `TCTCGGAGGACACGAAAGGTCAGAGCACGACATC` ?
-- reply 1.64

-- ask Quick one: PBM binding z-score for `CAAACTAGGTCAAAGGTCCAAGTCGAGCCAACCA` ?
-- reply 12.8

-- ask Quick one: PBM binding z-score for `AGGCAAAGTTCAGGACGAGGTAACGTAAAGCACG` ?
-- reply 3.33

----------
- System: THRa:RXRa (NR concentration 90 nM, RXRa partner concentration 90 nM)
- assayInfo: PBM binding z-score (relative to random genomic background probes); higher = stronger binding; sequences stand for … in GC…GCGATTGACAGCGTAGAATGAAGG
Recorded PBM binding z-score determines the group label, using band A = under 2, band B = from 2 up to 3, band C = 3 and over

INSERT INTO results (biosequence, answerlabel) VALUES
  ('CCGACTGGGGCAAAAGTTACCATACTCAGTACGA', 'band A'),
  ('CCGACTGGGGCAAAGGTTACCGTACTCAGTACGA', 'band A'),
  ('CCTACTGCGCCATCAGGTCATTGATATCAACGTT', 'band C'),
  ('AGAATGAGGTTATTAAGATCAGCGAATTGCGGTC', 'band B'),
  ('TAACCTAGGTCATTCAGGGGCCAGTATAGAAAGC', 'band C');

-- ask Which of the defined bands does the recorded PBM binding z-score of `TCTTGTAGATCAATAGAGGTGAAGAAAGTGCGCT` sit within?
-- reply band B

-- ask Which of the defined bands does the recorded PBM binding z-score of `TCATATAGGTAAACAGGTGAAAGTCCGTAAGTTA` sit within?
-- reply band A

----------
- System: LXRa homodimer (NR concentration 270 nM)
- assayInfo: PBM binding z-score (relative to random genomic background probes); higher = stronger binding; sequences stand for … in GC…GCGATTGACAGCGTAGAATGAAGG
Short version: PBM binding z-score at least 0.1 is label 1, less is label 0.

INSERT INTO results (biosequence, answerlabel) VALUES
  ('CCGACTGGGGCAAGGTTACCAAAACGCACAGCCA', 'label 0'),
  ('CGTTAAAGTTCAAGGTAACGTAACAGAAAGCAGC', 'label 1'),
  ('ATCTCTAGGTAAAGTTCAGTCAAAGATCGATAGA', 'label 1'),
  ('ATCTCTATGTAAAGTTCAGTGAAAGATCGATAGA', 'label 1'),
  ('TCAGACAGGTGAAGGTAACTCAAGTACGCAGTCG', 'label 1');

-- ask Tell me whether PBM binding z-score is at least 0.1 here: `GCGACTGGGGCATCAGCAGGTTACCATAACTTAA`
-- reply label 0

-- ask Tell me whether PBM binding z-score is at least 0.1 here: `CCGAGTAGGGTATGGGGCATTCAGGCAACGGTGA`
-- reply label 0

-- ask Tell me whether PBM binding z-score is at least 0.1 here: `TGAATGAGGTTATAAAATCAGGGAACGTTGCAAA`
-- reply label 0

-- ask Tell me whether PBM binding z-score is at least 0.1 here: `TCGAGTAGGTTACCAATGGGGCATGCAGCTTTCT`
-- reply label 0

-- ask Tell me whether PBM binding z-score is at least 0.1 here: `ATATTTAGGTTACATCCGGGTCATTCAGGCTATG`
-- reply label 1

-- ask Tell me whether PBM binding z-score is at least 0.1 here: `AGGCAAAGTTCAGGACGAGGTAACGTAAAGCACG`
-- reply label 1

-- ask Tell me whether PBM binding z-score is at least 0.1 here: `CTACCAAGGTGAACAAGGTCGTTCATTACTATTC`
-- reply label 1

-- ask Tell me whether PBM binding z-score is at least 0.1 here: `GGGACGAGGGCAAAGTTGATAGCATCTGTCGACG`
-- reply label 0
